Target: HIV-1 Env of DU156.12 (HIV-1)
Assay: cell-based or functional assay
PARAMETER MEASURED: neutralization IC50

Solved entries:
CAP256-VRC26.05 (antibody, V domains shown) VH: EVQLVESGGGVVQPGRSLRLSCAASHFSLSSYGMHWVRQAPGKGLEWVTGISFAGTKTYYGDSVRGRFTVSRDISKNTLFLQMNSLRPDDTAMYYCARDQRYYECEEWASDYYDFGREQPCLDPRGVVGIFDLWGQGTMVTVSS VL: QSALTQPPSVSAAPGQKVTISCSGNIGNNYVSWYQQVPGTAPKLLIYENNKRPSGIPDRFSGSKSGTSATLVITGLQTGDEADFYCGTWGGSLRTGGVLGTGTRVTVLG : > 50 µg/mL
CAP256-VRC26.10 (antibody, V domains shown) VH: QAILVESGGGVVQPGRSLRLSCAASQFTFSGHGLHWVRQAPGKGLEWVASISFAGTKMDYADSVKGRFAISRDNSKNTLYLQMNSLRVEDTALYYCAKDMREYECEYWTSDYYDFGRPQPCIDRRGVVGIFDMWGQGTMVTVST VL: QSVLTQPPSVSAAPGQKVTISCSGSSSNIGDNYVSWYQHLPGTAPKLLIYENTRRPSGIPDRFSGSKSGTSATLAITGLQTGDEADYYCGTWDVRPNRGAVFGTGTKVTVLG : > 50 µg/mL
CAP256-VRC26.03 (antibody, V domains shown) VH: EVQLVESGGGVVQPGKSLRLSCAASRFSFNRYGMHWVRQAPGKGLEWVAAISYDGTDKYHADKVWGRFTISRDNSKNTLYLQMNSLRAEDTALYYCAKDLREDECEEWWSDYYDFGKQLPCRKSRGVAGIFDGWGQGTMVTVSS VL: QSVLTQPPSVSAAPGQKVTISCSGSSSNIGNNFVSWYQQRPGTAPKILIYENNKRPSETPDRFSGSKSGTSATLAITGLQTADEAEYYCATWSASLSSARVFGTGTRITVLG : 0.117 µg/mL
CAP256-VRC26.02 (antibody, V domains shown) VH: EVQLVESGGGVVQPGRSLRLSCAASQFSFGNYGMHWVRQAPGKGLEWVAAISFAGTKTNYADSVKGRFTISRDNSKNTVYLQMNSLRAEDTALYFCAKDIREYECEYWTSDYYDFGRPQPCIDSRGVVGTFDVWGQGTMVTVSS VL: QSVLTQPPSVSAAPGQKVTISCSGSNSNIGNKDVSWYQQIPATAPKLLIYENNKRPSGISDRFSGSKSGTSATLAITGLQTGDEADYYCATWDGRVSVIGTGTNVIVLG : > 50 µg/mL

Next, consider the following binder.
(Q) neutralization IC50 lookup needed for CAP256-VRC26.06 (antibody, V domains shown) VH: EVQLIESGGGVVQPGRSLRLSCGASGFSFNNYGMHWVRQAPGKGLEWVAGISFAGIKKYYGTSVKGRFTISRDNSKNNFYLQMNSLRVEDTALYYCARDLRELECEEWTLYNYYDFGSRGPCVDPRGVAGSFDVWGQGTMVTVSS VL: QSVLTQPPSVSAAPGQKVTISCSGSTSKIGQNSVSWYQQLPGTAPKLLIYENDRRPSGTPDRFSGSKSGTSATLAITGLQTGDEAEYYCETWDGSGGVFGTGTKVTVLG , thanks.
(A) > 50 µg/mL
